meta.source: paper PMC4780864

Target: UniProt Q2M2I8
Sequence (Q2M2I8 27-365 limits assumed): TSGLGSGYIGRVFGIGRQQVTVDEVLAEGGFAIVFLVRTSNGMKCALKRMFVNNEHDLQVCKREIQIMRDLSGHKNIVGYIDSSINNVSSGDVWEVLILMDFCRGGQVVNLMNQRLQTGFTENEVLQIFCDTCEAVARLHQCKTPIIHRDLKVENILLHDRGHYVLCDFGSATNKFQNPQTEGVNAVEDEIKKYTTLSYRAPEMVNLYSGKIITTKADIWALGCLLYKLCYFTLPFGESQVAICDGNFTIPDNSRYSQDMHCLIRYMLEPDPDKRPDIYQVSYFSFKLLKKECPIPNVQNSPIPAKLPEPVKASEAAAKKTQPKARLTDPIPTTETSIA
Experiment: biochemical
Set-up: kinase domain; Thermal shift assay (DSF, SYPRO Orange), 2 uM kinase domain, mean delta Tm of triplicates versus DMSO
Settings: read-out: AAK1
ASSAY READOUT: ΔTm at 12.5 µM (°C)

Solved entries (count: 3):
Nc1ncnc2c1c(COc1cccc(Cl)c1)nn2C1CCOCC1    0.283
N#CCNC(=O)c1ccc(-c2ccnc(Nc3ccc(N4CCOCC4)cc3)n2)cc1    14.6
CN(C)C[C@@H]1CCn2cc(c3ccccc32)C2=C(C(=O)NC2=O)c2cn(c3ccccc23)CCO1    5.19

P = Cc1cccc(-c2nn3c(c2-c2ccnc4ccc(C(N)=O)cc24)CCC3)n1
Q = CCCS(=O)(=O)Nc1ccc(F)c(C(=O)c2c[nH]c3ncc(-c4ccc(Cl)cc4)cc23)c1F
R = O=c1sn(-c2cccc3ccccc23)c(=O)n1Cc1ccccc1
S = CNC(=O)c1ccccc1Sc1ccc2c(/C=C/c3ccccn3)n[nH]c2c1
T = COc1cc(F)c(F)c(Nc2ccc(I)cc2F)c1NS(=O)(=O)C1(C[C@H](O)CO)CC1
Order the records by ΔTm at 12.5 µM, with each subsequent value no larger than the one before. Hello, could you send the labels back in the order asked? Thank you. S, Q, P, R, T
(S: 6.85 °C, Q: 2.06 °C, P: 0.47 °C, R: 0.24 °C, T: -0.0333 °C)
